# maps each entry to its apparent KD of MS2 coat protein
System: MS2 coat protein
TEST_PROTOCOL: apparent KD of MS2 coat protein; designed switch direction (-1 OFF switch, 1 ON switch): 1; higher = weaker reporter binding
MEASUREMENT_CONTEXT: Eterna round: R95; input ligand: microRNA oligo, concentration not stated
The response must be a number in nM with no trailing unit.

Consider the following illustrative entries.
[[record]]
ordered_residues = "UGUAAACAUGAGGAUCACCCAUGUAAUAAUAUGGGAGGAUAUGGGAAUUAAUUAAUUAAACCAGAAGGCCUAAUGU [Mat - Same State 1 - D88] (puzzle: Same State 1)"
study_system = "MS2 coat protein"
readout_value = 388

[[record]]
ordered_residues = "GUAUAACAUGAGGAUCACCCAUGUCAUCUAAGUCGAGGAUAUGGGAAUUAAUUAAUUAAACCAGAAGGCGAAAAUU [Mat - Same State 1 - D92] (puzzle: Same State 1)"
study_system = "MS2 coat protein"
readout_value = 364

[[record]]
ordered_residues = "AGCUAUCGAAAACGAUAGCAAAAGCAUGUACAUGAGGAUCACCCAUGUCGUGUACAAGCUUUUUGCUCGUCUUAAAA [Zipper 23 - 5] (puzzle: Sensor for hsa-mir-208a)"
study_system = "MS2 coat protein"
readout_value = 13.9


Prompt: Tell me reported apparent KD of MS2 coat protein for AAGUUACUAUCUCAGGAUAUCAUGUCAAAGACAUGAGGAUCACCCAUGUACCAGGAAACUGGUUAUGAGAAGGGAGAUAGUAACU [Mat - Same State 2 - Mod - D54] (puzzle: Same State 2) , tested with MS2 coat protein.
Response: 204

Prompt: Param readout= apparent KD of MS2 coat protein; system= MS2 coat protein; entry= UUUUAUUUUUGGGUGCAAGCUUUUUGCUUACAUGAGGAUCACCCAUGUUUUUAUUUUUUAUUUUUAUUUUUAUUUUU (puzzle: Sensor for hsa-mir-208a) ; returns value.
Response: 60.3

Prompt: Give the reported apparent KD of MS2 coat protein for AACACACAUGAGGAUCACCCAUGUACCGAAAUCACAGGAUAUACAUAACUGAAUAACAUUGUAGAAGGGUGGCCGG [Enorerteso] (puzzle: Same State 1) (system: MS2 coat protein).
Response: 65.7

Prompt: Given the entry AGUCCAGCGAAAGCUGGACAAAAGCAUGUACAUGAGGAUCACCCAUGUUCAUGUACAAGCUUUUUGCUCGUCUUAAA [Zipper 52 - 13] (puzzle: Sensor for hsa-mir-208a) , what apparent KD of MS2 coat protein was observed with MS2 coat protein?
Response: 16.2

Prompt: Query apparent KD of MS2 coat protein on MS2 coat protein for AUUAAACAUGAGGAUCACCCAUGUCAACAAAGUCGAGGAUAUGGGCAAAUAAAUUAAGAACCAGAAGGCGAAUAAU [salish99_ss1_r3_057] (puzzle: Same State 1)
Response: 266

Prompt: Item UCUUGGUUUUUGCUCGUUUUUUGUGUUGAACAUGAGGAUCACCCAUGUAUUGUACGGUCCGAUUUGAUGAUGGUCCA [JMF 42] (puzzle: Sensor for hsa-mir-208a) with MS2 coat protein - apparent KD of MS2 coat protein?
Response: 22.2

Prompt: Item: AGAGUGUAUCCACAGGAUAUGCGAGCCGACACAUGAGGAUCACCCAUGUAGUCCUAAAGGGCUGAGCAGAAGGGUGGUAAGGCUC [Xelear] (puzzle: Same State 2) Test system: MS2 coat protein Read-out: apparent KD of MS2 coat protein Value: ?
Response: 169

Prompt: What reported apparent KD of MS2 coat protein corresponds to GGGUGUGGAAGGAAAGACAGGGAAAGGAAACAUGAGGAUCACCCAUGUGAAGGAAGAAAGGGAGCUCGUCUUAUAAG [JR_SHM208A_Sub002] (puzzle: Sensor for hsa-mir-208a) on MS2 coat protein?
Response: 27.6

Prompt: apparent KD of MS2 coat protein of UGGAUCUAGGCUUGCCUGGGUCCAUGUUGACAUGAGGAUCACCCAUGUGUAUUUUUUAAGCUUUUUGUUUGUCAACA [JL A Humble Attempt mod 6] (puzzle: Sensor for hsa-mir-208a) on MS2 coat protein?
Response: 13.2

Prompt: Report apparent KD of MS2 coat protein for AACAAUCUAUCUGAGGAUAUCAUGAAAUAAACAUGAGGAUCACCCAUGUGCAGGAUAACUGCAUAUGAGAAGGCAGAUAGAUUGA [salish99_ss2_r3_041] (puzzle: Same State 2) tested on MS2 coat protein.
Response: 661
